Source of measurements: paper PMC7604827

experiment: in vivo; conditions: rat, po, 10 mg/kg
measured.quantity: AUC (ng·h/mL)
// note: answer is a bare numeric in ng·h/mL

Examples from the recorded data:
CCCCN1C(=O)[C@@H]([C@H](O)C(C)C)NC(=O)C12CCN(Cc1ccc(Oc3ccc(C(=O)O)cc3)cc1)CC2.Cl [Compound 14] : 150
CCCCN1C(=O)[C@@H]([C@H](O)C2CCCCC2)NC(=O)C12CCN(Cc1ccc(Oc3ccc(NS(C)(=O)=O)cc3)cc1)CC2.Cl [Compound 13] : 242
CCCCN1C(=O)[C@@H]([C@H](O)C2CCCCC2)NC(=O)C12CCN(Cc1ccc(Oc3ccc(C(=O)NC)cc3)cc1)CC2.Cl [Compound 10] : 1300

[in] Which AUC is reported for this compound? CCCN1C(=O)[C@@H]([C@H](O)C2CCCCC2)NC(=O)C12CCN(Cc1ccc(Oc3ccc(C(=O)NC)cc3)cc1)CC2.Cl [Compound 26]
[out] 513
